These measurements were taken from paper PMC9911399.

Assignment: determine reported binding signal for the given binders.
Target: T1, RBFOX1 RRM RbFoxmut (Fox-RRM*) (Homo sapiens, UniProt Q9NWB1 109-208, R118D;E147R;N151S;E152T)
T1 sequence: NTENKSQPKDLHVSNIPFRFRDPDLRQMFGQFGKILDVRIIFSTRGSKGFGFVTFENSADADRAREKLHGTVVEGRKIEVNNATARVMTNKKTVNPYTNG
Test: EMSA; HiTS-Eq, 1 nM pool, 10 min; buffer printed only for the single-RNA assays: 10 mM Tris pH 7.5, 150 mM NaCl, 3.4 mM EDTA, 0.001% NP-40, 30 C
Details: tags: His6 N-terminal (pET28a); label: 5' 32P
The full ranking holds about 16,000 sequences; the median of “ka relative to ugcaugu” is about 0.096, and the highest 2% start at about 0.35. Shown is part of a subset that was picked to be rich in the highest values.

Exercise: So what does the record say about binding signal for UGCCAUG (DNA:RNA) RNA: GGGAGACCGGAAUUCAGAUUGUCCUGCCAUGUUAAAUCCCGUCGUAGCCACCA DNA 1: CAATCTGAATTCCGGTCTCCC DNA 2: TGGTGGCTACGACGGGATT ?
Key: 0.509 KA relative to UGCAUGU

Exercise: For UGCAUGU (DNA:RNA) RNA: GGGAGACCGGAAUUCAGAUUGUCCUGCAUGUUUAAAUCCCGUCGUAGCCACCA DNA 1: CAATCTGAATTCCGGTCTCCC DNA 2: TGGTGGCTACGACGGGATT then?
Key: 1 KA relative to UGCAUGU

Exercise: Now give it for CAAUGCG (DNA:RNA) RNA: GGGAGACCGGAAUUCAGAUUGUCCCAAUGCGUUAAAUCCCGUCGUAGCCACCA DNA 1: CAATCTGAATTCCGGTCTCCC DNA 2: TGGTGGCTACGACGGGATT too.
Key: 0.13 KA relative to UGCAUGU

Exercise: Would you kindly repeat that for GUGAAUU (DNA:RNA) RNA: GGGAGACCGGAAUUCAGAUUGUCCGUGAAUUUUAAAUCCCGUCGUAGCCACCA DNA 1: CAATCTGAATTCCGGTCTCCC DNA 2: TGGTGGCTACGACGGGATT ?
Key: 0.118 KA relative to UGCAUGU

Exercise: Ok, now UAGACCC (DNA:RNA) RNA: GGGAGACCGGAAUUCAGAUUGUCCUAGACCCUUAAAUCCCGUCGUAGCCACCA DNA 1: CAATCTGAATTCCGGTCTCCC DNA 2: TGGTGGCTACGACGGGATT
Key: 0.0507 KA relative to UGCAUGU

Exercise: Entry to check: UGCCAUA (DNA:RNA) RNA: GGGAGACCGGAAUUCAGAUUGUCCUGCCAUAUUAAAUCCCGUCGUAGCCACCA DNA 1: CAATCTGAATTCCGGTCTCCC DNA 2: TGGTGGCTACGACGGGATT
Key: 0.122 KA relative to UGCAUGU

Exercise: What do we get for UGCAUAU (DNA:RNA) RNA: GGGAGACCGGAAUUCAGAUUGUCCUGCAUAUUUAAAUCCCGUCGUAGCCACCA DNA 1: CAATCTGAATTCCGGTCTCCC DNA 2: TGGTGGCTACGACGGGATT ?
Key: 0.178 KA relative to UGCAUGU

Exercise: # iterate: CUGCAUA (DNA:RNA) RNA: GGGAGACCGGAAUUCAGAUUGUCCCUGCAUAUUAAAUCCCGUCGUAGCCACCA DNA 1: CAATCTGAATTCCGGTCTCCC DNA 2: TGGTGGCTACGACGGGATT
Key: 0.144 KA relative to UGCAUGU

Exercise: // same read-out, input: CCCUGCA (DNA:RNA) RNA: GGGAGACCGGAAUUCAGAUUGUCCCCCUGCAUUAAAUCCCGUCGUAGCCACCA DNA 1: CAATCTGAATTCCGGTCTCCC DNA 2: TGGTGGCTACGACGGGATT
Key: 0.186 KA relative to UGCAUGU
